The following are reported IC50 results, target or system Acetylcholinesterase (Electrophorus electricus).
readout: IC50 (µM)

>>> experimental_result("Cl.c1ccc(CCN2CCCc3[nH]c4ccccc4c3C2)cc1")
9
>>> experimental_result("O=C(c1ccccc1)N1CCCc2[nH]c3ccc(F)cc3c2C1")
10.6
>>> experimental_result("Cc1ccc2[nH]c3c(c2c1)CN(C)CCC3")
25
>>> experimental_result("Fc1ccc(CN2CCCc3[nH]c4ccc(F)cc4c3C2)cc1")
4.1
>>> experimental_result("Cc1ccc2[nH]c3c(c2c1)CN(Cc1ccccc1)CCC3")
6.95
>>> experimental_result("CCN(CC)Cc1ccc(CN2CCCc3[nH]c4ccc(F)cc4c3C2)cc1")
4.8
>>> experimental_result("Cl.c1ccc(CCCCN2CCCc3[nH]c4ccccc4c3C2)cc1")
20

====

# run.description: Selectivity index, ratio of IC50 for electric eel AChE to IC50 for equine serum BuChE
Ratio IC50: recorded values
readout: Ratio IC50

>>> experimental_result("Cl.c1ccc(CCN2CCCc3[nH]c4ccccc4c3C2)cc1")
"10 to 100"
>>> experimental_result("Fc1ccc(CN2CCCc3[nH]c4ccccc4c3C2)cc1")
10
>>> experimental_result("Cl.c1ccc(CCCCN2CCCc3[nH]c4ccccc4c3C2)cc1")
"> 100"
>>> experimental_result("Cn1c2c(c3ccccc31)CN(CCc1ccccc1)CCC2")
"10 to 100"
>>> experimental_result("Cl.c1ccc(CCCN2CCCc3[nH]c4ccccc4c3C2)cc1")
"10 to 100"
>>> experimental_result("Cc1ccc(CN2CCCc3[nH]c4ccccc4c3C2)cc1")
10

====

# system: Acetylcholinesterase (Homo sapiens)
# Sequence (P22303 whole entry): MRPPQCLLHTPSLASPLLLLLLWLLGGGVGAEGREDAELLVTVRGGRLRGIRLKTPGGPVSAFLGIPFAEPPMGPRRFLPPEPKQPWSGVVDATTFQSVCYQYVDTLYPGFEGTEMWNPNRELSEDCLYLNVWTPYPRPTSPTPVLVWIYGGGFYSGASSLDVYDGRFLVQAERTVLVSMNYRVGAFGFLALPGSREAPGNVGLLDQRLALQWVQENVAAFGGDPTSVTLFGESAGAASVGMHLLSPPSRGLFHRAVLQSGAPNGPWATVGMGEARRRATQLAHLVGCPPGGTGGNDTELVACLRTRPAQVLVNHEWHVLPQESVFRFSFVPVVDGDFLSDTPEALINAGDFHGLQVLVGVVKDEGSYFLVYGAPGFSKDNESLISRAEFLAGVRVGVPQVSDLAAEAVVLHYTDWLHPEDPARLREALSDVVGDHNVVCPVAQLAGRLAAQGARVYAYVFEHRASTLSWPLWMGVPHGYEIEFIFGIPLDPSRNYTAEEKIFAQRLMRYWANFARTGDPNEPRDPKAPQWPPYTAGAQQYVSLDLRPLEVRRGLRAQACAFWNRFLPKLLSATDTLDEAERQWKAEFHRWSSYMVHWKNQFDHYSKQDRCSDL
pIC50: −log10 of the molar value.
readout: pIC50

>>> experimental_result("Cl.c1ccc(CCCCN2CCCc3[nH]c4ccccc4c3C2)cc1")
4.70

====

The following are reported IC50 results, target or system Acetylcholinesterase (Electrophorus electricus, UniProt O42275).
readout: IC50

>>> experimental_result("CN1CCCc2[nH]c3ccccc3c2C1")
"7.1 µM"
>>> experimental_result("Cc1ccc2[nH]c3c(c2c1)CNCCC3")
"45 µM"
>>> experimental_result("Fc1ccc2[nH]c3c(c2c1)CNCCC3")
"16 µM"
>>> experimental_result("Cl.c1ccc(CCCN2CCCc3[nH]c4ccccc4c3C2)cc1")
"20 µM"
>>> experimental_result("Cc1ccc(CN2CCCc3[nH]c4ccccc4c3C2)cc1")
"10 µM"
>>> experimental_result("Fc1ccc(CN2CCCc3[nH]c4ccccc4c3C2)cc1")
"12 µM"
>>> experimental_result("Fc1ccc2[nH]c3c(c2c1)CCCN(Cc1ccccc1)C3")
"10.7 µM"
>>> experimental_result("c1ccc(CN2CCCc3[nH]c4ccccc4c3C2)cc1")
"8.7 µM"
>>> experimental_result("Fc1ccc2[nH]c3c(c2c1)CN(Cc1ccc(CN2CCCC2)cc1)CCC3")
"7.9 µM"
>>> experimental_result("Cn1c2c(c3ccccc31)CN(CCc1ccccc1)CCC2")
"12 µM"
>>> experimental_result("c1ccc2c3c([nH]c2c1)CCCNC3")
"70 µM"
>>> experimental_result("Fc1ccc2[nH]c3c(c2c1)CN(Cc1ccccc1)CCC3")
"4.96 µM"

====

# system: Cholinesterase (Homo sapiens)
# Sequence (P06276 whole entry): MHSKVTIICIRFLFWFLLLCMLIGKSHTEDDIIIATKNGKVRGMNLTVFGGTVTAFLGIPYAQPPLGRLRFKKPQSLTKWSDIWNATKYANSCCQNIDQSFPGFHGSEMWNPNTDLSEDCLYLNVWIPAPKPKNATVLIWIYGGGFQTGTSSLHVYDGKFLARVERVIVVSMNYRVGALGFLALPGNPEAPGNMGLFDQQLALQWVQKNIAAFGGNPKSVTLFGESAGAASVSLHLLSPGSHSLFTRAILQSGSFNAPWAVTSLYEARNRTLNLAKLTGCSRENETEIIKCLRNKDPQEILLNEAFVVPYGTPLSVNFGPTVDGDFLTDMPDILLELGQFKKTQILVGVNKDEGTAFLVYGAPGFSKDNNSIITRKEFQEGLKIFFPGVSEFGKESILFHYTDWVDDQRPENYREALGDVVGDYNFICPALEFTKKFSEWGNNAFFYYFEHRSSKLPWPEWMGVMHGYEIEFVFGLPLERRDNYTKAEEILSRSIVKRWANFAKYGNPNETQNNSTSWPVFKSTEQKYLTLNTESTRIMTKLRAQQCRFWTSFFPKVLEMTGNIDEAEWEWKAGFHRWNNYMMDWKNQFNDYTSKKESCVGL
# run.description: Inhibition of human BChE using butyrylthiocholine as substrate preincubated for 20 mins followed by substrate addition and measured upto 5 mins by Ellman's method
readout: IC50

>>> experimental_result("Cl.c1ccc(CCCCN2CCCc3[nH]c4ccccc4c3C2)cc1")
"199 nM"
